molecular target: UniProt:Q72874; assay: Inhibition of recombinant HIV-1 protease (NY-5) using 5 uM
Quantity: inhibition (%)
Provide the reading as a plain figure in %.

Recorded results for 8 compounds are shown here.
# Compound structure string, System name, inhibition, %
measured = [
    ("Cc1cccc(OCC(=O)N[C@@H](Cc2ccccc2)[C@H](O)C(=O)N2CSC[C@H]2C(=O)NC(C)(C)C)c1", "UniProt:Q72874", 38),
    ("Cc1cccc(C)c1OCC(=O)N[C@@H](Cc1ccccc1)[C@H](O)C(=O)N1CSC(C)(C)[C@H]1C(=O)NC(C)(C)C", "UniProt:Q72874", 97),
    ("CCc1c(O)cccc1C(=O)N[C@@H](Cc1ccccc1)[C@H](O)C(=O)N1CSC[C@H]1C(=O)NC(C)(C)C", "UniProt:Q72874", 98),
    ("CCCc1c(O)cccc1C(=O)N[C@@H](Cc1ccccc1)[C@H](O)C(=O)N1CSC[C@H]1C(=O)NC(C)(C)C", "UniProt:Q72874", 92),
    ("Cc1c(N)cccc1C(=O)N[C@@H](Cc1ccccc1)[C@H](O)C(=O)N1CSC[C@H]1C(=O)NC(C)(C)C", "UniProt:Q72874", 81),
    ("Cc1ccc(OCC(=O)N[C@@H](Cc2ccccc2)[C@H](O)C(=O)N2CSC[C@H]2C(=O)NC(C)(C)C)cc1", "UniProt:Q72874", 44),
    ("CC(C)(C)NC(=O)[C@@H]1CSCN1C(=O)[C@@H](O)[C@H](Cc1ccccc1)NC(=O)COc1ccccc1", "UniProt:Q72874", 48),
    ("CC(C)(C)NC(=O)[C@@H]1CSCN1C(=O)[C@@H](O)[C@H](Cc1ccccc1)NC(=O)c1ccccc1", "UniProt:Q72874", 52),
]

Fill in: inhibition of CCc1cccc(CC)c1OCC(=O)N[C@@H](Cc1ccccc1)[C@H](O)C(=O)N1CSC[C@H]1C(=O)NC(C)(C)C is ___ 62

Fill in: inhibition of Cc1cccc(C)c1OCC(=O)N[C@@H](Cc1ccccc1)[C@H](O)C(=O)N1CSC[C@H]1C(=O)NC(C)(C)C is ___ 95

Fill in: inhibition of Cc1c(O)cccc1C(=O)N[C@@H](Cc1ccccc1)[C@H](O)C(=O)N1CSC(C)(C)[C@H]1C(=O)NC(C)(C)C is ___ 99

Fill in: inhibition of CC(C)(C)NC(=O)[C@@H]1CSCN1C(=O)[C@@H](O)[C@H](Cc1ccccc1)NC(=O)c1cccc(O)c1 is ___ 76

Fill in: inhibition of Cc1c(O)cccc1C(=O)N[C@@H](Cc1ccccc1)[C@H](O)C(=O)N1CSC[C@H]1C(=O)NC(C)(C)C is ___ 97

Fill in: inhibition of CCc1cccc(C)c1OCC(=O)N[C@@H](Cc1ccccc1)[C@H](O)C(=O)N1CSC[C@H]1C(=O)NC(C)(C)C is ___ 94

Fill in: inhibition of Cc1ccccc1C(=O)N[C@@H](Cc1ccccc1)[C@H](O)C(=O)N1CSC[C@H]1C(=O)NC(C)(C)C is ___ 75

Fill in: inhibition of CCc1c(O)cccc1C(=O)N[C@@H](Cc1ccccc1)[C@H](O)C(=O)N1CSC(C)(C)[C@H]1C(=O)NC(C)(C)C is ___ 99

Fill in: inhibition of CCCc1cccc(C)c1OCC(=O)N[C@@H](Cc1ccccc1)[C@H](O)C(=O)N1CSC[C@H]1C(=O)NC(C)(C)C is ___ 97

Fill in: inhibition of Cc1ccccc1OCC(=O)N[C@@H](Cc1ccccc1)[C@H](O)C(=O)N1CSC[C@H]1C(=O)NC(C)(C)C is ___ 82
